Endpoint summary: Ki, system: Carbonic anhydrase 13 (Homo sapiens, UniProt Q8N1Q1), multiple sources combined.

Field: example entries. Status: answers known.
CC1(C)C=Cc2cc3ccc(=O)oc3cc2O1 8.36 µM
NS(=O)(=O)c1ccc(NC(=O)CN2C(=O)NC3(CCCCCC3)C2=O)cc1 > 10 µM
NS(=O)(=O)c1ccc(CCNC(=O)CN2C(=O)NC3(CCCCC3)C2=O)cc1 7.41 µM
NC(N)=Nc1nc(CSCCC(N)=NS(N)(=O)=O)cs1 0.172 µM
NS(=O)(=O)c1ccc(CNC(=O)CCCNC(=O)NCCc2ccccc2)cc1 > 0.24 µM

Okay, now this compound:
Looking for the measured Ki of NS(=O)(=O)c1ccc(CCNC(=O)CN2C(=O)NC3(CCCCCC3)C2=O)cc1 , can you help?
> 10 µM
